We begin with a simple list: items and their reported viability at 125 µg/mL.
test system: WI-38 human normal fibroblast cells; assay: cell viability assay (MTT); format: cell-based; settings: 125 µg/mL, 24 h, read-out: Validity (%) for sample concentrations (µg/mL) 125
Only the number, expressed in %, is required.

• O=C1CSC(c2ccc(Cl)cc2)N1c1nc(-c2cc(Cl)cc3c2-c2ccc(Cl)cc2C3)cs1 (centres unmarked) = 83.8
• COc1cc(C2SCC(=O)N2c2nc(-c3cc(Cl)cc4c3-c3ccc(Cl)cc3C4)cs2)ccc1O (centres unmarked) = 78.7
• CN(C)c1ccc(C2SCC(=O)N2c2nc(-c3cc(Cl)cc4c3-c3ccc(Cl)cc3C4)cs2)cc1 (centres unmarked) = 74.4
• O=C1C(Cl)C(c2ccc(Cl)cc2)N1c1nc(-c2cc(Cl)cc3c2-c2ccc(Cl)cc2C3)cs1 (centres unmarked) = 63.4
• O=C1CSC(c2ccncc2)N1c1nc(-c2cc(Cl)cc3c2-c2ccc(Cl)cc2C3)cs1 (centres unmarked) = 42.3
• O=C1C(Cl)C(c2ccc([N+](=O)[O-])cc2)N1c1nc(-c2cc(Cl)cc3c2-c2ccc(Cl)cc2C3)cs1 (centres unmarked) = 35.6

Short answer for O=C1CSC(C=Cc2ccccc2)N1c1nc(-c2cc(Cl)cc3c2-c2ccc(Cl)cc2C3)cs1 (centres unmarked) : viability at 125 µg/mL was 69.1

get_value(item= O=C1CSC(c2ccccc2)N1c1nc(-c2cc(Cl)cc3c2-c2ccc(Cl)cc2C3)cs1 (centres unmarked) , readout=viability at 125 µg/mL) returns 80.6

###

tested on: A549 human lung cancer cells; test: cell viability assay (MTT); type: cell-based; settings: 62.50 µg/mL, 24 h, read-out: Validity (%) for sample concentrations (µg/mL) 62.50
Lab note: compare viability at 62.5 µg/mL with 80%, writing 1.0 if less and 0.0 if equal or more.

Previously resolved entries follow.
• O=C1CSC(c2ccc[nH]2)N1c1nc(-c2cc(Cl)cc3c2-c2ccc(Cl)cc2C3)cs1 (centres unmarked) [5l] = 1.0
• O=C1C(Cl)C(c2ccc([N+](=O)[O-])cc2)N1c1nc(-c2cc(Cl)cc3c2-c2ccc(Cl)cc2C3)cs1 (centres unmarked) [6f] = 0.0
• O=C1C(Cl)C(c2ccncc2)N1c1nc(-c2cc(Cl)cc3c2-c2ccc(Cl)cc2C3)cs1 (centres unmarked) [6m] = 1.0
• O=C1C(Cl)C(c2ccc(Cl)cc2)N1c1nc(-c2cc(Cl)cc3c2-c2ccc(Cl)cc2C3)cs1 (centres unmarked) [6c] = 1.0

Turning now to a further record.
Task: I'd appreciate it if you could check whether O=C(O)c1ccc(C2C(Cl)C(=O)N2c2nc(-c3cc(Cl)cc4c3-c3ccc(Cl)cc3C4)cs2)cc1 (centres unmarked) [6g] has viability at 62.5 µg/mL smaller than 80%.
Result: 1.0

###

tested on: A549 human lung cancer cells; experiment: cell viability assay (MTT); format: cell-based; details: 125 µg/mL, 24 h, read-out: Validity (%) for sample concentrations (µg/mL) 125
Measurement Type: viability at 125 µg/mL (%)
Just the number in %, nothing appended.

Worked examples follow.
* O=C1CSC(C=Cc2ccccc2)N1c1nc(-c2cc(Cl)cc3c2-c2ccc(Cl)cc2C3)cs1 (stereo not shown) | 81.3
* O=C1C(Cl)C(c2ccc(Br)cc2)N1c1nc(-c2cc(Cl)cc3c2-c2ccc(Cl)cc2C3)cs1 (stereo not shown) | 49

compound O=C(O)c1ccc(C2SCC(=O)N2c2nc(-c3cc(Cl)cc4c3-c3ccc(Cl)cc3C4)cs2)cc1 (stereo not shown) , viability at 125 µg/mL observed: 84.1

Just so you know, measured viability at 125 µg/mL for COc1ccc(C2C(Cl)C(=O)N2c2nc(-c3cc(Cl)cc4c3-c3ccc(Cl)cc3C4)cs2)cc1 (stereo not shown) came out at 77.8

###

Recorded viability at 500 µg/mL for the following molecules
tested on: A549 human lung cancer cells; assay: cell viability assay (MTT); type: cell-based; details: 500 µg/mL, 24 h, read-out: Validity (%) for sample concentrations (µg/mL) 500
Expressed in %, but write only the number.

Please review the following examples before continuing.
- O=C1C(Cl)C(c2ccnc3ccccc23)N1c1nc(-c2cc(Cl)cc3c2-c2ccc(Cl)cc2C3)cs1 (stereo not shown) [6n]: 39.1
- O=C1C(Cl)C(c2ccc[nH]2)N1c1nc(-c2cc(Cl)cc3c2-c2ccc(Cl)cc2C3)cs1 (stereo not shown) [6l]: 30.3
- CN(C)c1ccc(C2SCC(=O)N2c2nc(-c3cc(Cl)cc4c3-c3ccc(Cl)cc3C4)cs2)cc1 (stereo not shown) [5e]: 62.2

Tested on A549 human lung cancer cells: O=C1C(Cl)C(c2ccncc2)N1c1nc(-c2cc(Cl)cc3c2-c2ccc(Cl)cc2C3)cs1 (stereo not shown) [6m] . Observed viability at 500 µg/mL: 54.1

For the molecule O=C1CSC(c2ccc(Cl)cc2)N1c1nc(-c2cc(Cl)cc3c2-c2ccc(Cl)cc2C3)cs1 (stereo not shown) [5c] , the measured viability at 500 µg/mL on A549 human lung cancer cells was 46.3

Measured on A549 human lung cancer cells, O=C1C(Cl)C(c2ccc(Cl)cc2)N1c1nc(-c2cc(Cl)cc3c2-c2ccc(Cl)cc2C3)cs1 (stereo not shown) [6c] has a documented viability at 500 µg/mL of 19.7

Reported A549 human lung cancer cells viability at 500 µg/mL for item O=C1C(Cl)C(c2ccc([N+](=O)[O-])cc2)N1c1nc(-c2cc(Cl)cc3c2-c2ccc(Cl)cc2C3)cs1 (stereo not shown) [6f] was 38.6

Known value: A549 human lung cancer cells viability at 500 µg/mL of the molecule O=C1C(Cl)C(c2ccco2)N1c1nc(-c2cc(Cl)cc3c2-c2ccc(Cl)cc2C3)cs1 (stereo not shown) [6j] equals 29.2

// molecule O=C1CSC(c2cccs2)N1c1nc(-c2cc(Cl)cc3c2-c2ccc(Cl)cc2C3)cs1 (stereo not shown) [5k] , assay A549 human lung cancer cells, viability at 500 µg/mL value: 60.9

###

tested on: WI-38 cells; experiment: FACS analysis, Annexin V and PI staining; type: cell-based, human; conditions: 24 h, 5g 1000 µg/mL, 6c, 6d, 6k 500 µg/mL
Measured necrotic cell death (of total cell number) accompanies every entry in the list below.
Please state the figure in %; there is no need to write the unit.

Some compounds with recorded necrotic cell death (of total cell number):
* O=C1C(Cl)C(c2ccc(Br)cc2)N1c1nc(-c2cc(Cl)cc3c2-c2ccc(Cl)cc2C3)cs1 (stereo not shown) [6d] | 14.1
* O=C1C(Cl)C(c2cccs2)N1c1nc(-c2cc(Cl)cc3c2-c2ccc(Cl)cc2C3)cs1 (stereo not shown) [6k] | 9.93
* O=C(O)c1ccc(C2SCC(=O)N2c2nc(-c3cc(Cl)cc4c3-c3ccc(Cl)cc3C4)cs2)cc1 (stereo not shown) [5g] | 15.8

Note: attention shifts to another entry.
necrotic cell death (of total cell number) recorded for this compound, O=C1C(Cl)C(c2ccc(Cl)cc2)N1c1nc(-c2cc(Cl)cc3c2-c2ccc(Cl)cc2C3)cs1 (stereo not shown) [6c] , is 14.5

###

system: A549 human lung cancer cells; test: cell viability assay (MTT); format: cell-based; settings: 125 µg/mL, 24 h, read-out: Validity (%) for sample concentrations (µg/mL) 125
Measurement Type: viability at 125 µg/mL (%)
Provide the reading as a plain figure in %.

Solved cases below.
- O=C1CSC(c2cccs2)N1c1nc(-c2cc(Cl)cc3c2-c2ccc(Cl)cc2C3)cs1 (centres unmarked): 79.6
- O=C1CSC(c2ccnc3ccccc23)N1c1nc(-c2cc(Cl)cc3c2-c2ccc(Cl)cc2C3)cs1 (centres unmarked): 70.7
- O=C1C(Cl)C(c2ccc(Cl)cc2)N1c1nc(-c2cc(Cl)cc3c2-c2ccc(Cl)cc2C3)cs1 (centres unmarked): 31.3
- O=C1C(Cl)C(c2ccnc3ccccc23)N1c1nc(-c2cc(Cl)cc3c2-c2ccc(Cl)cc2C3)cs1 (centres unmarked): 52.7
- O=C1CSC(c2ccc(Cl)cc2)N1c1nc(-c2cc(Cl)cc3c2-c2ccc(Cl)cc2C3)cs1 (centres unmarked): 62.6
- O=C1CSC(c2ccc(Br)cc2)N1c1nc(-c2cc(Cl)cc3c2-c2ccc(Cl)cc2C3)cs1 (centres unmarked): 78.8
- CN(C)c1ccc(C2SCC(=O)N2c2nc(-c3cc(Cl)cc4c3-c3ccc(Cl)cc3C4)cs2)cc1 (centres unmarked): 72.2

Now examine the next entry.
Result for O=C1CSC(c2ccc[nH]2)N1c1nc(-c2cc(Cl)cc3c2-c2ccc(Cl)cc2C3)cs1 (centres unmarked) , tested on A549 human lung cancer cells, viability at 125 µg/mL: 68

###

tested on: WI-38 human normal fibroblast cells; experiment: cell viability assay (MTT); type: cell-based; details: 31.25 µg/mL, 24 h, read-out: Validity (%) for sample concentrations (µg/mL) 31.25
Measurement Type: viability at 31.25 µg/mL (%)
The answer is to be given in %; state only the numeric part.

- COc1ccc(C2C(Cl)C(=O)N2c2nc(-c3cc(Cl)cc4c3-c3ccc(Cl)cc3C4)cs2)cc1 (centres unmarked): 94.1
- O=C1CSC(c2ccco2)N1c1nc(-c2cc(Cl)cc3c2-c2ccc(Cl)cc2C3)cs1 (centres unmarked): 84.2

CN(C)c1ccc(C2SCC(=O)N2c2nc(-c3cc(Cl)cc4c3-c3ccc(Cl)cc3C4)cs2)cc1 (centres unmarked) yielded viability at 31.25 µg/mL of 92.4

Memo: O=C1C(Cl)C(C=Cc2ccccc2)N1c1nc(-c2cc(Cl)cc3c2-c2ccc(Cl)cc2C3)cs1 (centres unmarked) , reported viability at 31.25 µg/mL: 83.1

GET /value?item= O=C1CSC(c2ccc([N+](=O)[O-])cc2)N1c1nc(-c2cc(Cl)cc3c2-c2ccc(Cl)cc2C3)cs1 (centres unmarked) &field=viability at 31.25 µg/mL returns 82.5

Quick note, viability at 31.25 µg/mL for COc1cc(C2SCC(=O)N2c2nc(-c3cc(Cl)cc4c3-c3ccc(Cl)cc3C4)cs2)ccc1O (centres unmarked) landed at 95

Provenance of the data: paper PMC7315563
